Target: Ubiquitin carboxyl-terminal hydrolase 1 (Homo sapiens) + WD repeat-containing protein 48 (Homo sapiens) (UniProt O94782+Q8TAF3)
Sequence (O94782 whole entry, looked up): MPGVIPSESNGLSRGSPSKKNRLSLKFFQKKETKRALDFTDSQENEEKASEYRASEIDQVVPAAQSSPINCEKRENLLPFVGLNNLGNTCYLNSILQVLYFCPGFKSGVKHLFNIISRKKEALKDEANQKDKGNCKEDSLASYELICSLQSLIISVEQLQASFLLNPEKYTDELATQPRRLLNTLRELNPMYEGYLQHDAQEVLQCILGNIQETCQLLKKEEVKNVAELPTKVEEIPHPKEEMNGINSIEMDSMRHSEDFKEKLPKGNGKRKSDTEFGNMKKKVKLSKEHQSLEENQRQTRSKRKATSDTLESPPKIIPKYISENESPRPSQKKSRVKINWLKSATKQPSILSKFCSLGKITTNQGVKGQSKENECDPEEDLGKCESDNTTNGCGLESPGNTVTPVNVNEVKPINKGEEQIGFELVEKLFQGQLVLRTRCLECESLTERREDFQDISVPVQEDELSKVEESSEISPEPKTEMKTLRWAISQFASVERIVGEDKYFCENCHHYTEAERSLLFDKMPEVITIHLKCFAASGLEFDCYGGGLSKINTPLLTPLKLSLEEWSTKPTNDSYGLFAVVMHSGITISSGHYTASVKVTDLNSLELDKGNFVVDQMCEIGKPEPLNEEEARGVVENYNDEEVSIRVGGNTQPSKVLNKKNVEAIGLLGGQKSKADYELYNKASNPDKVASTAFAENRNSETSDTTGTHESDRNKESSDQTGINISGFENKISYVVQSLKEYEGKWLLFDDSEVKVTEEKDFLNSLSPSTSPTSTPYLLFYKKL
Sequence (Q8TAF3 whole entry, looked up): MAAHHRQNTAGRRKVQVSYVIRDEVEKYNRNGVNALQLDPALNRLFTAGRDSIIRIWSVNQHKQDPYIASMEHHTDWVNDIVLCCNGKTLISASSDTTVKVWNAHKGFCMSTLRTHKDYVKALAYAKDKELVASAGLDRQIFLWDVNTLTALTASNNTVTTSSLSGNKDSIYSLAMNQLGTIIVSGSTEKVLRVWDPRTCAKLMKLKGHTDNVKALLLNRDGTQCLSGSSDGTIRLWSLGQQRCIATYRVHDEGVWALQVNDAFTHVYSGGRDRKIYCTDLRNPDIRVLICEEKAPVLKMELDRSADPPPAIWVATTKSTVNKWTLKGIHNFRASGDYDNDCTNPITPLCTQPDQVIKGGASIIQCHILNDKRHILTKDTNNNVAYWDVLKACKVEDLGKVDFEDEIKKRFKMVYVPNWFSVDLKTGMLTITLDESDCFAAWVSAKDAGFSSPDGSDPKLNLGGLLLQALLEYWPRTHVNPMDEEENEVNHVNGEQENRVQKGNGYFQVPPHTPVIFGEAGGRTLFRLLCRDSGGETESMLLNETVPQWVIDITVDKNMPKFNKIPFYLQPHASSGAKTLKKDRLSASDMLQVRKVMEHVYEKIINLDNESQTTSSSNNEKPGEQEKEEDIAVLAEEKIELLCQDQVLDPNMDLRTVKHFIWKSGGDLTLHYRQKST
Assay: Inhibitors of USP1/UAF1: Hit Validation in USP1 Diubiquiting Gel Assay
Details: USP1/UAF1 K63 diubiquitin cleavage, SDS-PAGE gel
Results filed as inconclusive are left out. Active and inactive are the calls of the source.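 The calls were made as follows: active = potency, the concentration giving half inhibition in the gel assay, of 75 µM or lower; inconclusive = potency above 75 µM yet under 100 µM; inactive = potency of 100 µM or weaker, or none.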
recorded_metric: Potency

chemical_structure: Cc1ccccc1-c1nc(NCc2cccnc2)c2ccccc2n1
result: inactive
--
chemical_structure: c1ccc2c(Nc3ccncc3)nc(-c3ccc4c(c3)OCO4)nc2c1
result: 28.6 µM (active)
--
chemical_structure: COc1ccc(CNc2ccnc(-c3ccccc3C(F)(F)F)n2)c(OC)c1
result: 4.5 µM (active)
--
chemical_structure: N#Cc1cccc(-c2ccc3ncnc(NCc4ccccc4)c3c2)c1
result: 26.6 µM (active)
--
chemical_structure: COc1cccc(-c2nccc(NCc3cccc(C)c3)n2)c1
result: 13 µM (active)

Give a short answer stating reported Potency for COc1ccccc1-c1cc(NCc2ccccc2)ncn1 .
10.9 µM (active)

Give a short answer stating reported Potency for COc1ccccc1-c1nccc(NCc2ccccc2)n1 .
16.9 µM (active)

====

Here the recorded Potency is given for each entry.
Target: Ubiquitin carboxyl-terminal hydrolase 1 (Homo sapiens) + WD repeat-containing protein 48 (Homo sapiens) (UniProt O94782+Q8TAF3)
Assay: Inhibitors of USP1/UAF1: Hit Validation in USP1 Diubiquiting Gel Assay
Details: USP1/UAF1 K63 diubiquitin cleavage, SDS-PAGE gel
Inconclusive results are not listed. Active and inactive are the calls of the source.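 Rule for the calls: active = potency, the concentration giving half inhibition in the gel assay, of 75 µM or lower; inconclusive = potency above 75 µM yet under 100 µM; inactive = potency of 100 µM or weaker, or none.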

chemical_structure: COc1ccccc1-c1nc(NCc2cccs2)c2ccccc2n1
Potency: 21.3 µM (active)

Give a short answer stating reported Potency for COc1ccc(CNc2nc(-c3ccccc3OC)nc3ccccc23)c(OC)c1 .
14.5 µM (active)

Give a short answer stating reported Potency for Cc1cccc(CNc2ccnc(-c3ccccc3C(F)(F)F)n2)c1 .
3 µM (active)

Give a short answer stating reported Potency for Cc1cccc(CNc2cc(-c3ccccc3C)ncn2)c1 .
26.3 µM (active)

Give a short answer stating reported Potency for FC(F)(F)c1ccccc1-c1nccc(NCc2ccccc2)n1 .
9.6 µM (active)
